Origin of values: patent US9358096B2

test.description: everolimus arterial tissue concentration in and next to the stented vessel
Format: in vivo, swine
measurement.context: swine, arterial tissue, proximal stented region (B), swine; 7.0×100 mm stent; 28 days; read-out: Mean Arterial Tissue Concentration, B proximal stented region
value.kind: concentration at 28 days
Field note: include the unit after the figure.

Which concentration at 28 days reading was recorded for the compound CO[C@H]1C[C@@H]2CC[C@@H](C)[C@@](O)(O2)C(=O)C(=O)N2CCCC[C@H]2C(=O)O[C@H]([C@H](C)C[C@@H]2CC[C@@H](OCCO)[C@H](OC)C2)CC(=O)[C@H](C)/C=C(\C)[C@@H](O)[C@@H](OC)C(=O)[C@H](C)C[C@H](C)/C=C/C=C/C=C/1C [everolimus, 40-O-(2-hydroxyethyl)-rapamycin] ?
3620 ng/g

* * *

test.description: everolimus arterial tissue concentration in and next to the stented vessel
Assay type: in vivo, swine
measurement.context: swine, other: drug-eluting stent implanted in iliofemoral arteries, 1070 μg, swine; 10.0×28 mm stent, 1070 μg; 7 days; read-out: drug concentration in tissue proximal to stented region
value.kind: concentration at 7 days (ng/g)
Answers are plain numbers, in ng/g.

For CO[C@H]1C[C@@H]2CC[C@@H](C)[C@@](O)(O2)C(=O)C(=O)N2CCCC[C@H]2C(=O)O[C@H]([C@H](C)C[C@@H]2CC[C@@H](OCCO)[C@H](OC)C2)CC(=O)[C@H](C)/C=C(\C)[C@@H](O)[C@@H](OC)C(=O)[C@H](C)C[C@H](C)/C=C/C=C/C=C/1C [everolimus, 40-O-(2-hydroxyethyl)-rapamycin] , what is its reported concentration at 7 days?
37

* * *

test.description: everolimus arterial tissue concentration in and next to the stented vessel
Format: in vivo, swine
measurement.context: swine, arterial tissue, distal stented region (D), swine; 7.0×100 mm stent; 3 days; read-out: Mean Arterial Tissue Concentration, D distal stented region
value.kind: concentration at 3 days
Please format your answer as a value with the unit trailing.

Looking for the measured concentration at 3 days of CO[C@H]1C[C@@H]2CC[C@@H](C)[C@@](O)(O2)C(=O)C(=O)N2CCCC[C@H]2C(=O)O[C@H]([C@H](C)C[C@@H]2CC[C@@H](OCCO)[C@H](OC)C2)CC(=O)[C@H](C)/C=C(\C)[C@@H](O)[C@@H](OC)C(=O)[C@H](C)C[C@H](C)/C=C/C=C/C=C/1C [everolimus, 40-O-(2-hydroxyethyl)-rapamycin] , can you help?
12400 ng/g

* * *

test.description: everolimus arterial tissue concentration in and next to the stented vessel
Assay type: in vivo, swine
measurement.context: swine, 3209 μg, swine; 8.0×28 mm stent, group 3, 3209 μg; 7 days; read-out: drug concentration in tissue distal to stented region
value.kind: concentration at 7 days (ng/g)
Answers are plain numbers, in ng/g.

Using the record for CO[C@H]1C[C@@H]2CC[C@@H](C)[C@@](O)(O2)C(=O)C(=O)N2CCCC[C@H]2C(=O)O[C@H]([C@H](C)C[C@@H]2CC[C@@H](OCCO)[C@H](OC)C2)CC(=O)[C@H](C)/C=C(\C)[C@@H](O)[C@@H](OC)C(=O)[C@H](C)C[C@H](C)/C=C/C=C/C=C/1C [everolimus, 40-O-(2-hydroxyethyl)-rapamycin] , report its concentration at 7 days.
910

* * *

test.description: everolimus arterial tissue concentration in and next to the stented vessel
Type: in vivo, swine
measurement.context: swine, arterial tissue, distal stented region (D), swine; 7.0×100 mm stent; 90 days; read-out: Mean Arterial Tissue Concentration, D distal stented region
value.kind: concentration at 90 days (ng/g)
One number for each entry, in ng/g.

Can you share its concentration at 90 days? I mean this compound: CO[C@H]1C[C@@H]2CC[C@@H](C)[C@@](O)(O2)C(=O)C(=O)N2CCCC[C@H]2C(=O)O[C@H]([C@H](C)C[C@@H]2CC[C@@H](OCCO)[C@H](OC)C2)CC(=O)[C@H](C)/C=C(\C)[C@@H](O)[C@@H](OC)C(=O)[C@H](C)C[C@H](C)/C=C/C=C/C=C/1C [everolimus, 40-O-(2-hydroxyethyl)-rapamycin]
2400

* * *

test.description: everolimus arterial tissue concentration in and next to the stented vessel
Assay type: in vivo, swine
measurement.context: swine, arterial tissue, proximal stented region (B), swine; 7.0×100 mm stent; 3 days; read-out: Mean Arterial Tissue Concentration, B proximal stented region
value.kind: concentration at 3 days

State the recorded concentration at 3 days for this entry: CO[C@H]1C[C@@H]2CC[C@@H](C)[C@@](O)(O2)C(=O)C(=O)N2CCCC[C@H]2C(=O)O[C@H]([C@H](C)C[C@@H]2CC[C@@H](OCCO)[C@H](OC)C2)CC(=O)[C@H](C)/C=C(\C)[C@@H](O)[C@@H](OC)C(=O)[C@H](C)C[C@H](C)/C=C/C=C/C=C/1C [everolimus, 40-O-(2-hydroxyethyl)-rapamycin]
10900 ng/g

* * *

test.description: everolimus arterial tissue concentration in and next to the stented vessel
Assay type: in vivo, swine
measurement.context: swine, arterial tissue of stented region, 1070 μg, swine; 8.0×28 mm stent, group 2, 1070 μg Lot #2; 28 days; read-out: drug concentration in tissue of stented region
value.kind: concentration at 28 days (ng/g)
One number for each entry, in ng/g.

Which concentration at 28 days value belongs to CO[C@H]1C[C@@H]2CC[C@@H](C)[C@@](O)(O2)C(=O)C(=O)N2CCCC[C@H]2C(=O)O[C@H]([C@H](C)C[C@@H]2CC[C@@H](OCCO)[C@H](OC)C2)CC(=O)[C@H](C)/C=C(\C)[C@@H](O)[C@@H](OC)C(=O)[C@H](C)C[C@H](C)/C=C/C=C/C=C/1C [everolimus, 40-O-(2-hydroxyethyl)-rapamycin] ?
1850

* * *

test.description: everolimus arterial tissue concentration in and next to the stented vessel
Type: in vivo, swine
measurement.context: swine, arterial tissue, unstented segment distal to stented region, 1070 μg, swine; 8.0×28 mm stent, group 2, 1070 μg Lot #2; 7 days; read-out: drug concentration in tissue distal to stented region
value.kind: concentration at 7 days (ng/g)
Numbers only, in ng/g.

For CO[C@H]1C[C@@H]2CC[C@@H](C)[C@@](O)(O2)C(=O)C(=O)N2CCCC[C@H]2C(=O)O[C@H]([C@H](C)C[C@@H]2CC[C@@H](OCCO)[C@H](OC)C2)CC(=O)[C@H](C)/C=C(\C)[C@@H](O)[C@@H](OC)C(=O)[C@H](C)C[C@H](C)/C=C/C=C/C=C/1C [everolimus, 40-O-(2-hydroxyethyl)-rapamycin] , what is its reported concentration at 7 days?
435

* * *

test.description: everolimus arterial tissue concentration in and next to the stented vessel
Format: in vivo, swine
measurement.context: swine, arterial tissue of stented region, 1070 μg, swine; 10.0×28 mm stent, 1070 μg; 28 days; read-out: drug concentration in tissue of stented region
value.kind: concentration at 28 days (ng/g)
Answers are plain numbers, in ng/g.

Returns the measured concentration at 28 days for the input molecule. Input: CO[C@H]1C[C@@H]2CC[C@@H](C)[C@@](O)(O2)C(=O)C(=O)N2CCCC[C@H]2C(=O)O[C@H]([C@H](C)C[C@@H]2CC[C@@H](OCCO)[C@H](OC)C2)CC(=O)[C@H](C)/C=C(\C)[C@@H](O)[C@@H](OC)C(=O)[C@H](C)C[C@H](C)/C=C/C=C/C=C/1C [everolimus, 40-O-(2-hydroxyethyl)-rapamycin]
3930

* * *

test.description: everolimus arterial tissue concentration in and next to the stented vessel
Type: in vivo, swine
measurement.context: swine, arterial tissue, medial stented region (C), swine; 7.0×100 mm stent; 28 days; read-out: Mean Arterial Tissue Concentration, C medial stented region
value.kind: concentration at 28 days (ng/g)
Answers are plain numbers, in ng/g.

Can you look up the measured concentration at 28 days of CO[C@H]1C[C@@H]2CC[C@@H](C)[C@@](O)(O2)C(=O)C(=O)N2CCCC[C@H]2C(=O)O[C@H]([C@H](C)C[C@@H]2CC[C@@H](OCCO)[C@H](OC)C2)CC(=O)[C@H](C)/C=C(\C)[C@@H](O)[C@@H](OC)C(=O)[C@H](C)C[C@H](C)/C=C/C=C/C=C/1C [everolimus, 40-O-(2-hydroxyethyl)-rapamycin] for me?
4150

* * *

test.description: everolimus arterial tissue concentration in and next to the stented vessel
Assay type: in vivo, swine
measurement.context: swine, 1070 μg, swine; 8.0×28 mm stent, group 2, 1070 μg Lot #2; 90 days; read-out: drug concentration in tissue proximal to stented region
value.kind: concentration at 90 days (ng/g)
Give bare numbers, in ng/g.

Suppose we examine the molecule CO[C@H]1C[C@@H]2CC[C@@H](C)[C@@](O)(O2)C(=O)C(=O)N2CCCC[C@H]2C(=O)O[C@H]([C@H](C)C[C@@H]2CC[C@@H](OCCO)[C@H](OC)C2)CC(=O)[C@H](C)/C=C(\C)[C@@H](O)[C@@H](OC)C(=O)[C@H](C)C[C@H](C)/C=C/C=C/C=C/1C [everolimus, 40-O-(2-hydroxyethyl)-rapamycin] ; what concentration at 90 days value has been reported?
16
